- Subject of test: OR7D4 (Homo sapiens, UniProt Q8NG98, D296E/E302K/G299D)
- Construct: Improved functional expression of modified OR-genes containing the truncated, optimized C-terminus; expressed in transfected cells
- Sequence (Q8NG98 with tags, fused parts or gaps D296E/G299D/E302K): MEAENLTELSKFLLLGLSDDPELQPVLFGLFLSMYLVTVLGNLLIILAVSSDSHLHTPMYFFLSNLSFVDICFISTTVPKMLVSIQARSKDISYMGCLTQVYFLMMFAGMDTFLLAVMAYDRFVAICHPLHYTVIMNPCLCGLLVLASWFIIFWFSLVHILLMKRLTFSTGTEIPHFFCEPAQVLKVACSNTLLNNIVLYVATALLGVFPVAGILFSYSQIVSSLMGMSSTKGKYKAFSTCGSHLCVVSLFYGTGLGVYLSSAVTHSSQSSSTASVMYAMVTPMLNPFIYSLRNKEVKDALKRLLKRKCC
- Test details: CRE-luciferase assay, HEK cells expressing OR7D4 (wild-type / modified C-terminus)
- Format: cell-based
- Condition: OR7D4 variant, Androstenone
Measured endpoint: EC2 (concentration for 2-fold luciferase induction) (µM)
Reply with just the number (in µM).

Assign EC2 (concentration for 2-fold luciferase induction) to the following record: SEQ ID NO: 306 (RNKDVRKAVRRLFGRRCC; source 1..18: note = C-terminal domain sequence) 0.017

State, in one line, measured EC2 (concentration for 2-fold luciferase induction) of SEQ ID NO: 278 (RNRDVRKALRRLFKKRCC; source 1..18: note = C-terminal domain sequence) 0.003

For the substance SEQ ID NO: 270 (RNKDVRKAVRRLIKRKCC; source 1..18: note = C-terminal domain sequence) , give its reported EC2 (concentration for 2-fold luciferase induction). 0.012

Find the measured EC2 (concentration for 2-fold luciferase induction) of SEQ ID NO: 283 (RNREVKKAVKKLIGKRCC; source 1..18: note = C-terminal domain sequence) and report it. 0.013

Using known records, supply EC2 (concentration for 2-fold luciferase induction) for SEQ ID NO: 86: optimized C-terminal sequence fused after TM7 of the OR of the assay (RNKEVKDALKRLLKRKCC; source 1..18: note = C-terminal domain sequence) 0.007

Entry SEQ ID NO: 257 (RNKEMKKAIHKLFGKKCC; source 1..18: note = C-terminal domain sequence) needs its EC2 (concentration for 2-fold luciferase induction) filled in; supply it. 0.010

* * *

- Subject of test: OR8K3 (Homo sapiens, UniProt Q8NH51, D295E/L122R/Y298D)
- Construct: Improved functional expression of modified OR-genes containing the truncated, optimized C-terminus; expressed in transfected cells; host or cells: HEK293T stably expressing human RTP1S(V227I) and RTP2(L220R)
- Sequence (Q8NH51 with tags, fused parts or gaps L122R/D295E/Y298D): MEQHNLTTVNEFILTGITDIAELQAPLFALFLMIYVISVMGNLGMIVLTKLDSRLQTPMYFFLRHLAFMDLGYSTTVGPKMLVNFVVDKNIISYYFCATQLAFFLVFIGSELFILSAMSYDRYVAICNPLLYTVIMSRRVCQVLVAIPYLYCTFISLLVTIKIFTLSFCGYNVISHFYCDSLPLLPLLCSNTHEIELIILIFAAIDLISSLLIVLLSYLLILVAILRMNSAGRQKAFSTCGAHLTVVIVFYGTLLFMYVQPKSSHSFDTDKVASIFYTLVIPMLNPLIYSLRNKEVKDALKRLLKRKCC
- Test details: cell-based
- Assay type: cell-based
- Condition: changed C-term. SEQ ID NO: 86
Measured endpoint: EC50 (µM)
Write it as a number; the unit µM goes unstated.

Assign EC50 to the following record: CC1CCC(C(C)C)C(O)C1 (stereo not shown) 115

* * *

- Subject of test: OR5B12 (Homo sapiens, UniProt Q96R08, C141R)
- Construct: Improved functional expression of modified OR-genes containing the truncated, optimized C-terminus; expressed in transfected cells; host or cells: HEK293T stably expressing human RTP1S(V227I) and RTP2(L220R)
- Sequence (Q96R08 with tags, fused parts or gaps C141R): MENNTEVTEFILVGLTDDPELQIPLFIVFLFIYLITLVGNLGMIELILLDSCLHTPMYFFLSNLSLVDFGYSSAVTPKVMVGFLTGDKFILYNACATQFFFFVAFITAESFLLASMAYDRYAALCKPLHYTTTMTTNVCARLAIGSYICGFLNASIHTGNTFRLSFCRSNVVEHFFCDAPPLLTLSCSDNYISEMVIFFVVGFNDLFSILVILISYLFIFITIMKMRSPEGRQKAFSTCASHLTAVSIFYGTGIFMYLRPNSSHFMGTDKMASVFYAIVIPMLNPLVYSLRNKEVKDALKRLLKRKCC
- Test details: CRE-luciferase assay, HEK293T cells expressing OR5B12 (wild-type / modified C-terminus)
- Assay type: cell-based
- Condition: wild-type
Measured endpoint: pEC50
Note: pEC50 values are expressed as the negative base-10 logarithm of concentration in M.

Please list pEC50 recorded for the compound CCCCCC1C(=O)CCC1CC(=O)OC (racemic) [Hedione HC, reference compound] 4.16
